- tested target: T1, 4H3865-AA
- T1 chain: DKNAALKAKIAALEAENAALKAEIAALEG
- protocol details: two-hybrid library CCmax;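 also: natural log of median RNA to DNA barcode read ratio; higher means stronger binding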
- test conditions: mean of both orientations
Would you mind telling me the reported interaction score of each entry?
Give bare numbers.

Sample records with interaction score:
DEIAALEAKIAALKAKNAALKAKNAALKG [4H384-AA] | -0.294
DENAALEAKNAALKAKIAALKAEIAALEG [4H1513-AA] | -1.9
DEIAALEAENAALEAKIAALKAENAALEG [4H171-AA] | -0.476
DKNAALEAEIAALKAENAALKAEIAALKG [4H3162-AA] | -0.607
DKNAALEAEIAALEAKNAALKAKIAALEG [4H3133-AA] | 0.466
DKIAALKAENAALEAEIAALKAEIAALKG [4H2698-AA] | -1.07

Consider the record given below.
# interaction score of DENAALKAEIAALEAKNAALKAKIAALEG [4H1597-AA] = 0.833
